assay: Light transmission at 580 nm (% T); format: physicochemical; conditions: 9% REF4 plus 1% of the named material; 580 nm
Clarity % T by entry:
Expressed in %, but write only the number.

Examples with their reported Clarity % T follow.
# molecule, recorded measurement
data = [
    ("CCCCCCCCCC(=O)OCC1OC(OC2C(COC(=O)CCCCCCCCC)OC(OC(=O)CCCCCCCCC)C(OC(=O)CCCCCCCCC)C2OC(=O)CCCCCCCCC)C(OC(=O)CCCCCCCCC)C(OC(=O)CCCCCCCCC)C1OC(=O)CCCCCCCCC (mixture of isomers) [REF 4, reference compound]", 0.36),
    ("CCCCCCCCCC(=O)OCC1OC(OC2C(COC(=O)CCCCCCCCC)OC(OC(=O)c3ccccc3)C(OC(=O)CCCCCCCCC)C2OC(=O)CCCCCCCCC)C(OC(=O)CCCCCCCCC)C(OC(=O)CCCCCCCCC)C1OC(=O)CCCCCCCCC (mixture of isomers) [Ex 2.1]", 9.53),
    ("CCCCCCCCCC(=O)OCC1OC(OC2C(COC(=O)CCCCCCCCC)OC(OC(=O)c3ccc(-c4ccccc4)cc3)C(OC(=O)CCCCCCCCC)C2OC(=O)CCCCCCCCC)C(OC(=O)CCCCCCCCC)C(OC(=O)CCCCCCCCC)C1OC(=O)CCCCCCCCC (mixture of isomers)", 7.7),
]

Next molecule, Clarity % T to be filled in.
Answer with the recorded Clarity % T of CCCCCCCCCC(=O)OCC1OC(OC2C(COC(=O)CCCCCCCCC)OC(OC(=O)c3ccc4ccccc4c3)C(OC(=O)CCCCCCCCC)C2OC(=O)CCCCCCCCC)C(OC(=O)CCCCCCCCC)C(OC(=O)CCCCCCCCC)C1OC(=O)CCCCCCCCC (mixture of isomers) only. 8.7
